molecular target: HLA-A*2402 (human); test: iTopia off-rate
Measured t1/2 values are reported for all entries that follow.

> print(dat)
                               binder  reported.property  endpoint.value
1  QYSALKVKY [cdr2 352-360 QYSALKVKY]               t1/2            0.35

For the next question, use this binder.
Prompt: What does the record list as t1/2 for QHAKVYEQL [cdr2 79-87 QHAKVYEQL] ?
Response: 0.25
